Values were extracted from paper PMC8409965.

tested target: PARP1 (Homo sapiens)
Construct: purchased BPS Bioscience (San Diego, CA)
experimental details: PARP1 colorimetric activity assay kit (BPS Bioscience)
Assay type: biochemical
assay context: 1 µM concentration of the inhibitor, mean ± SD, n = 3
quantity: inhibition at 1 µM (%)

CC1(C)NC(=O)c2ccccc2[C@@H]1C(=O)N1CCC(N2CCCCC2)CC1 [Compound 2h]	4
O=C1NC2(CCCCC2)[C@@H](C(=O)N2CCC(N3CCCCC3)CC2)c2ccccc21 [Compound 2i]	12.1
O=C1NC2(CCCC2)[C@@H](C(=O)N2CCC(N3CCCCC3)CC2)c2ccccc21 [Compound 2k]	10.6
CC(C)(C)[C@H]1NC(=O)c2ccccc2[C@@H]1C(=O)N1CCC(N2CCCCC2)CC1 [Compound 2f]	24.1
O=C1NC2(CCOCC2)[C@@H](C(=O)N2CCC(N3CCCCC3)CC2)c2ccccc21 [Compound 2j]	5.1

---

tested target: PARP2 (Homo sapiens)
Sequence (Q9UGN5 whole entry): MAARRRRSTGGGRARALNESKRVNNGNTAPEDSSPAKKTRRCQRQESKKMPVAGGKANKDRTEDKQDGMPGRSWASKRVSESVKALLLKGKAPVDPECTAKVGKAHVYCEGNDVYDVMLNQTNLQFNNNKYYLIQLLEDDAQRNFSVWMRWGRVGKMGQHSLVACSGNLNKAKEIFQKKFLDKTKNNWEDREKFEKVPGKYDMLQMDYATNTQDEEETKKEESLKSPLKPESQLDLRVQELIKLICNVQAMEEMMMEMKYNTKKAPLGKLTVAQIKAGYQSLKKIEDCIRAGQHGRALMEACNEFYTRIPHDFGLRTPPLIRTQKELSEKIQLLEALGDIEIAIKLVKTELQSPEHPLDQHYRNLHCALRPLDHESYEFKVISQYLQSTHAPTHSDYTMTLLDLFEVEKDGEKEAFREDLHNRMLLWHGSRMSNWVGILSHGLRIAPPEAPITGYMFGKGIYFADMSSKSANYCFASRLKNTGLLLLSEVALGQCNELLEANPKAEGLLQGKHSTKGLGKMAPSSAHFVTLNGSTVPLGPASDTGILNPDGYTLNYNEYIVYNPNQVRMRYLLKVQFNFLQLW
quantity: IC50

O=C1N[C@H](C2CC2)[C@@H](C(=O)N2CCC(N3CCCCC3)CC2)c2ccccc21	18.3 nM
O=C1N[C@H](C2CCCC2)[C@@H](C(=O)N2CCC(N3CCCCC3)CC2)c2ccccc21	> 500 nM
O=C1NC(C2CC2)C(C(=O)N2CCC(N3CCCCC3)CC2)c2ccc(F)cc21 (centres unmarked)	4.3 nM
O=C1N[C@H](c2ccccc2)[C@@H](C(=O)N2CCC(N3CCCCC3)CC2)c2ccccc21	69.5 nM
CC[C@H]1NC(=O)c2ccccc2[C@@H]1C(=O)N1CCC(N2CCCCC2)CC1	11 nM
O=C1N[C@H](c2ccc(F)cc2)[C@@H](C(=O)N2CCC(N3CCCCC3)CC2)c2ccccc21	39.9 nM
CC(C)C[C@H]1NC(=O)c2ccccc2[C@@H]1C(=O)N1CCC(N2CCCCC2)CC1	105 nM
C[C@H]1NC(=O)c2ccccc2[C@@H]1C(=O)N1CCC(N2CCCCC2)CC1	29.2 nM

---

tested target: PARP1 (Homo sapiens, UniProt P09874)
Sequence (P09874 whole entry): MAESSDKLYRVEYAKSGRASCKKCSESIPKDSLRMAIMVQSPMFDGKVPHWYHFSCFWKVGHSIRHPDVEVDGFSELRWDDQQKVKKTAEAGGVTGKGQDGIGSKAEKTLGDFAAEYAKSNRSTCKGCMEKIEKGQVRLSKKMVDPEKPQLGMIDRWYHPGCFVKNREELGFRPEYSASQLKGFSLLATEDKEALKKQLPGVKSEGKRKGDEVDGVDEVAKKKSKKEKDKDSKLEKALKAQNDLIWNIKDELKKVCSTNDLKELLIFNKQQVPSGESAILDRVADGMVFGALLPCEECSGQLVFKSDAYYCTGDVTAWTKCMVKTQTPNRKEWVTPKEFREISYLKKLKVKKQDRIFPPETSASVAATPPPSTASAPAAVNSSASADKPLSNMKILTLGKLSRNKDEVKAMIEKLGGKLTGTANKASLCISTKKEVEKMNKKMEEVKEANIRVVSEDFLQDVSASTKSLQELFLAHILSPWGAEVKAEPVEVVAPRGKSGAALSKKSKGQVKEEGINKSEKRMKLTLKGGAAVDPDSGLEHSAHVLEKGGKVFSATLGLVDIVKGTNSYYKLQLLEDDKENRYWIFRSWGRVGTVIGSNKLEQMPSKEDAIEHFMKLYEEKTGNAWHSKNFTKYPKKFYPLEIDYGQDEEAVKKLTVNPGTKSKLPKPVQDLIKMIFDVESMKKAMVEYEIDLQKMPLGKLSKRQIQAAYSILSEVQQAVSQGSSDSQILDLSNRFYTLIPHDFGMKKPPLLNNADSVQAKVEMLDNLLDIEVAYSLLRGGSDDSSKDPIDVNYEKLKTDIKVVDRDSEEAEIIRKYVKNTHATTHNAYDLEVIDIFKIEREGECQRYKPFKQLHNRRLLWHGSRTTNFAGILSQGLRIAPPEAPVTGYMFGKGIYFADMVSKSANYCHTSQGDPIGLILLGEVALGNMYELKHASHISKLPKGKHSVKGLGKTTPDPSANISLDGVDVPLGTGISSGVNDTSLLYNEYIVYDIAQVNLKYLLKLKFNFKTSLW
pIC50: −log10 of the molar value.
quantity: pIC50

CC(C)C[C@H]1NC(=O)c2ccccc2[C@@H]1C(=O)N1CCC(N2CCCCC2)CC1	7.06
